Test: protein stability index of a GFP-peptide fusion (GPS, HEK-293T) (PSI 1-6); higher = more stable;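 also: 24-mer peptide tiles fused after GFP, lentivirally expressed, FACS-sorted into six equal bins by GFP/DsRed ratio, decoded by Illumina sequencing, PSI is the read-weighted mean bin number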
Conditions: treatment: MLN4924 1 uM, 8 h; c terminus: a fixed tail appended
Would you kindly list protein stability index for each of these sequences?
Just the number, please.

Which value of protein stability index has been reported for IFSVTALDPDSKENAQIIYSLAED [PCDHGA10] in the records?
3.21

Also need TGFGQGQGYTINVPWNQVGMRDAD [HDAC6] , thanks.
2.71

Also need LAEYQDLTFLTKQEILLAHRRFCE [CIB1] , thanks.
2.54

Also need LNEKRTFFHLSALKGYLYAVGGRN [KLHL13] , thanks.
2.33

Also need SRNAADKERAAGGGAGSSEDDAQS [GOLPH3] , thanks.
5.6

Also need LAMNYLDRFLAGVPTPKSHLQLLG [CCND2] , thanks.
2.65

Also need GPDDSLWDKHACPAYVGPEILSSR [TRIB3] , thanks.
3.54

Also need RPDKALSEGDLKNAIRVHHALATR [PSD2] , thanks.
4.31

Also need GLGAGFGGGFAGGDGLLVGSEKVT [KRT16] , thanks.
4.08

Also need EFDYLKSLEIEEKINKIRWLPQQN [PPP2R2B] , thanks.
2.9

Also need LESELLRGTQYSSLDSLDGLSLTD [PSD2] , thanks.
4.73

Also need MCPPVSMRYEEEGMSYLYASWMYQ [TEX19] , thanks.
2.11

Also need WASRREAFAQRPSSAPDLMCLSPD [CDC25B] , thanks.
4.07

Also need TVVTGLGPDTQDLEGQSPPQSLPS [PBXIP1] , thanks.
5.16

Also need DDGIKVVKVTFNKQDSLVILTIMA [TMEM106C] , thanks.
3.11

Also need TLSDWAAAVESVLHLGLPWRMLRP [PPEF2] , thanks.
2.48

Also need QGEEPWVQVSPEFKDSAGKSPTGL [ZNF75A] , thanks.
5.04

Also need RLDFFEKPDYEYLRTLFTDLFEKK [CSNK1G1] , thanks.
2.77

Also need LPSRPPPLLSPLLASRNPCPWHYL [RSPH3] , thanks.
2.15

Also need SESTNTTIEDEDTKVRKQEIIKVT [CAMK2A] , thanks.
5.31

Also need STSEESWTDSEVDSSCSGQPIHLW [SPDEF] , thanks.
4.37

Also need GGTSSNNSEEEEDDDDEEEEVSEV [ANKRD17] , thanks.
5.54

Also need LACWTYGISVPSGLFVPSLLCGAA [CLCN6] , thanks.
3.43

Also need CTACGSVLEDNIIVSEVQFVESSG [BRF1] , thanks.
3.74

Also need RSNTLRERSQVRGSAPPRATPGGG [PCDHGC5] , thanks.
4.47

Also need RFEEGGRRKCGQYWPLEKDSRIRF [PTPN9] , thanks.
2.88

Also need LLIANKRQSYDISIVAQVDQTGSK [CARM1] , thanks.
2.52

Also need PQKSLFFHHIPSTCQRVNGIKVQN [SLC19A2] , thanks.
2.78

Also need LKEFDLDALLGIDDLETMPDDLLT [ATF4] , thanks.
4.05

Also need TGPLQPQPKKPEDEPQETAYRTQV [PKD2L1] , thanks.
5.3

Also need LEPLKAIIQYRLPMKKNNNLYSWD [ACSBG2] , thanks.
2.17

Also need GEVPVLIHGENIICEATQIIDYLE [GDAP1] , thanks.
3.6

Also need DVAEGYRKLSLKGHNDWVMDVAIS [WDR88] , thanks.
2.69

Also need GIVGLNNIKANDYANAVLQALSNV [USP39] , thanks.
2.25

Also need QNLYFNCSSPGVQACSLPASCCID [TSPAN10] , thanks.
3.25

Also need DREEEAIHHLVLTASDGGDPLRSG [PCDHGA10] , thanks.
5.08

Also need EIRMWQTREKAKFSDGEKCRREAF [PHTF1] , thanks.
3.1

Also need SCNDSKLEFRSFWELIGEAAKSVK [S100A14] , thanks.
2.11

Also need RPATEAELLTCHSAEYVGHLRATE [HDAC6] , thanks.
3.85

Also need PPKKPSNWRRKHEEFIATIRAAKG [ZC2HC1A] , thanks.
3.82

Also need VEGRKHVDVQTELYLEEIADRIIE [RSPH3] , thanks.
2.77

Also need ATRSTTQSNRTSRLIGKKMNRSVS [WEE1] , thanks.
4.21

Also need GADKEILTTKGEMPVQLTSRREIR [ANKRD40] , thanks.
4.95

Also need TATEELEKTQDDLMKHQTNISELK [EPB41L3] , thanks.
5.47

Where these numbers come from: the supplement of paper PMC10567573
